- STUDY TARGET: T1, human IL-36R (human, UniProt Q9HB29 20-575)
- T1 sequence (looked up): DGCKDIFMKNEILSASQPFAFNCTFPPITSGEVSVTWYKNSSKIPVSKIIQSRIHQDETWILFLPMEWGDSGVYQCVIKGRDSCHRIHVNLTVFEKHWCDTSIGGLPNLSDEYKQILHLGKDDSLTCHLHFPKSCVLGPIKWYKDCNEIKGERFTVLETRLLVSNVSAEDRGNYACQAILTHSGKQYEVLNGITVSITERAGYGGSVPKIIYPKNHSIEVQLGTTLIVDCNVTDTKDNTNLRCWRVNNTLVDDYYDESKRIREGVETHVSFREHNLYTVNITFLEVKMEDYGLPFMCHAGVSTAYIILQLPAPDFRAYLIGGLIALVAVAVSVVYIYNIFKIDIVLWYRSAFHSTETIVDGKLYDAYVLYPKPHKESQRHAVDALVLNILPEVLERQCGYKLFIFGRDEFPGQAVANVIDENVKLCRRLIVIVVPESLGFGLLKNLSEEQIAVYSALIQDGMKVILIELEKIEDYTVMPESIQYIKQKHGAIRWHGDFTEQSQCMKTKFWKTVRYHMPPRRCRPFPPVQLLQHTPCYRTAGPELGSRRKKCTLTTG
- PROTOCOL TEXT: cell-based or functional assay
Documented IC50, IL-8 release under IL-36 β stimulation (NCI/ADR-RES cells) across a set of binders
Reply with just the number (in µg/mL).

INSERT INTO results (binder, value_unit, reported_result) VALUES
  ('humanized anti-IL-36R antibody 900534 (antibody, V domains shown, IgG1 (human IgG1 L234A/L235A, human kappa)) VH: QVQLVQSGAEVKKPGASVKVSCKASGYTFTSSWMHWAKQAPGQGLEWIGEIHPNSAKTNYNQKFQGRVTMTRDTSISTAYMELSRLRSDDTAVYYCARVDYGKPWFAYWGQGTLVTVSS VL: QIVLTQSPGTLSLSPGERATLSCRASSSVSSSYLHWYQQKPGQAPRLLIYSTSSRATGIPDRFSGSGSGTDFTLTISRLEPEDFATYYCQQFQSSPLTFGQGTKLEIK', 'µg/mL', 0.022);

What does the data say about its IC50, IL-8 release under IL-36 β stimulation (NCI/ADR-RES cells)? Entry: anti-IL-36R chimeric antibody 900497 (antibody, V domains shown, Human-mouse chimera: human IgG1 heavy-chain constant region with L234A and L235A (Eu numbering), human kappa constant region) VH: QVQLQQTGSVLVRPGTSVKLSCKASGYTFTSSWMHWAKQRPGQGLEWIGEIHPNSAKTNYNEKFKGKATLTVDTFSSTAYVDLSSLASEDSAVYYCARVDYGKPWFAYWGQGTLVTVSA VL: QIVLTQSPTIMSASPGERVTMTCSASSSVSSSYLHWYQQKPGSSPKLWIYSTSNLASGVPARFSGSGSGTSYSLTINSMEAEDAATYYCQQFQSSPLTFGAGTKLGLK
0.0292

What does the data say about its IC50, IL-8 release under IL-36 β stimulation (NCI/ADR-RES cells)? Entry: humanized anti-IL-36R antibody 900527 (antibody, V domains shown, IgG1 (human IgG1 L234A/L235A, human kappa); also called HB0034) VH: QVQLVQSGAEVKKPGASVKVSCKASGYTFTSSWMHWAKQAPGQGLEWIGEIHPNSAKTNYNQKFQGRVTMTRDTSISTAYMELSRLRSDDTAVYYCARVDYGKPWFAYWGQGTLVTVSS VL: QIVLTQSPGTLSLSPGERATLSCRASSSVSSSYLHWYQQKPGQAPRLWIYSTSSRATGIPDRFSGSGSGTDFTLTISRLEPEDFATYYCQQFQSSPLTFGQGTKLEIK
0.0223

What does the data say about its IC50, IL-8 release under IL-36 β stimulation (NCI/ADR-RES cells)? Entry: humanized anti-IL-36R antibody 900513 (antibody, V domains shown, IgG1; built from the chimeric expression plasmids (human IgG1 L234A/L235A, human kappa)) VH: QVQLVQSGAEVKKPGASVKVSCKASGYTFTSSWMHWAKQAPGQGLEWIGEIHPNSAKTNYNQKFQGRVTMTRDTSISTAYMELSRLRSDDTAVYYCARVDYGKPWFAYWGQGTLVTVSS VL: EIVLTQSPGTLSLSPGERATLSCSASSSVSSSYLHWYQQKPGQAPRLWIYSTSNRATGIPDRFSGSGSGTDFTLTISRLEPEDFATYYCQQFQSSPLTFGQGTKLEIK
0.0221
